The reported measurements were obtained from PubChem BioAssay (NCI).

Test system: MALME-3M melanoma
experiment-description: NCI-60 one-dose screen, 48 h
particulars: 10 µM unless noted
The panel holds about 83,000 compounds, 20% with a hit somewhere; the sample as a whole holds those more often. Calls of active or inactive are those of the source. How the source made its calls: active means growth percent below 10; inactive means the rest.
Assign a class; possible classes are 1.0 for active, 0.0 for inactive

input: Called result for Brc1cccc(-c2cc(-c3ccc4nccnc4c3)[nH]n2)c1
output: 0.0

input: What was the test verdict on ClC(Cl)c1nc(-c2cccnc2)n2nc(-c3ccccc3)cc2n1 ?
output: 1.0

input: Dear all, I need the recorded test outcome for CCOC(=O)CC(=O)OC , thank you.
output: 0.0

input: Per the records of this test, what outcome belongs to COc1cc2c(cc1O)CCN1C[C@@H](CC(C)C)[C@@H](O)C[C@@H]21 ?
output: 0.0

input: Record lookup: outcome of this test for COc1cc(-c2nn(-c3cccc(NC(=O)Nc4cccc(C(F)(F)F)c4)c3)cc2-c2ccncc2)ccc1Cl ?
output: 1.0

input: Name the outcome recorded for CCOC(=O)c1cc(C(=O)c2cc(OC)c(OC)c(OC)c2)n2c1ccc1ccccc12 in the assay.
output: 0.0

input: I'd appreciate the recorded outcome for CCN(CC)c1ccc2[nH]c3c(C(N)=O)cc(=O)c(=O)c=3oc2c1 from this test.
output: 1.0

input: Please indicate how the test categorized Nc1cc2c([nH]c[n+]2CC#CCCl)c(SCC#CCCl)n1 .
output: 1.0

input: What did the test return for CNc1ccc(Br)c2c1C(=O)c1ccccc1C2=O ?
output: 0.0

input: Hey, what did the test say about COc1ccc2[nH]c(=O)c3c4ccccc4cn3c2c1 ?
output: 0.0

input: Called result for NC1=NC(SCc2ccccc2CCl)c2ncn(Cc3ccccc3CCl)c2N1 (stereo unspecified)
output: 0.0

input: What did the test return for COc1cc(-c2nn(-c3cccc(NC(=O)Nc4cc(C(F)(F)F)cc(C(F)(F)F)c4)c3)cc2-c2ccncc2)ccc1Cl ?
output: 1.0

input: Recorded test outcome, item O=[N+]([O-])c1cnc(Sc2ccncn2)s1
output: 1.0

input: Entry O=C(Nc1cccc(-n2cc(-c3ccncc3)c(-c3ccc(Cl)c(O)c3)n2)c1)Nc1ccc(Cl)c(Cl)c1 : call = ?
output: 0.0

input: Name the outcome recorded for O=C(NCc1cn(Cc2cccc(Oc3ccccc3)c2)nn1)c1cccnc1Nc1ccc(F)cc1 in the assay.
output: 0.0

input: Outcome logged for CN(C)CCCN(c1nc(C(Cl)(Cl)Cl)ns1)c1nc(C(Cl)(Cl)Cl)ns1 in this assay:
output: 0.0

input: Hello, I am checking results. What call was entered for Cc1ccc(CSC(=N)N)cc1C ?
output: 0.0

input: Test call for this compound, please: C=C1C(=O)O[C@@H]2[C@@H]3O[C@@](C)(CC/C=C(\C)CCC[C@@H]2C)[C@H](O)C[C@@H]13
output: 0.0

input: Check the results log: what was the call for COc1c2occc2c(OC)c2c(=O)c(-c3cc(-c4ccc(F)cc4)c(C#N)c(N)n3)c(C)oc12 ?
output: 0.0

input: Entry O=C([O][Sn]([O]C(=O)c1ccccn1)([c]1ccccc1)[c]1ccccc1)c1ccccn1 : call = ?
output: 0.0

input: Per the assay record, what outcome was assigned to O=S(=O)(c1ccc(OCCO)cc1)c1ccc(OCCO)cc1 ?
output: 0.0

---

Tested on: KM12 colon
experiment-description: NCI-60 one-dose screen, 48 h
particulars: 10 µM unless noted
Compounds without any hit were thinned out: in the full panel of roughly 83,000, 20% have a hit. Active and inactive are the calls of the source. How the source made its calls: active means growth percent below 10; inactive means the rest.
Output constraint: value belongs to active, inactive

input: Record request — test call for COc1cc(C2C3=C(COC3=O)Nc3cc4c(cc32)OCO4)cc2c1OCO2 (stereo not given)
output: active

input: What was the test verdict on COc1ccc(-c2c(N)n[nH]c2-c2cc3c(c(OC)c2OC)OCO3)cc1 ?
output: inactive

input: In this assay, the call recorded for O=C1NN(C(=O)c2ccc(Cl)cc2)C(c2ccccc2)=N/C1=C\c1cn(-c2ccccc2)nc1-c1ccccc1 was what?
output: inactive

input: Would you mind telling me which call this test gave O=C(/C=C/c1cc(-c2ccc3c(c2)OCO3)n[nH]1)c1ccc2c(c1)OCO2 ?
output: inactive

input: Could you please tell me the result logged for O=S(=O)(NCCNc1nccc(-c2c(-c3ccc(F)cc3)nc3sccn23)n1)c1ccc(F)cc1 in this assay?
output: inactive

input: What classification did O=c1[nH]c(NCc2ccccc2)nc2nc(Nc3ccc(NC(=S)Nc4ccccc4)cc3)nc(-c3ccc(O)cc3O)c12 end up with in this test?
output: inactive

input: Hey, what did the test say about COc1ccc2c(c1)[nH]c(=O)c1c3cccc(F)c3cn21 ?
output: active

input: // return assay outcome for O=C(NS(=O)(=O)c1ccc2ccccc2c1)n1cc(-c2ccncc2)c(-c2ccc(Cl)c(O)c2)n1
output: inactive

input: Hi, do you know how CC(=O)c1cc2c(N)c(C(=O)Nc3cccc4c3OCCO4)sc2nc1C came out in this test?
output: inactive

input: Which outcome was entered for the compound NNc1cccc(/C=C/c2ccccc2)cc1=O in this test?
output: inactive

---

Tested on: HS 578T breast
experiment-description: NCI-60 one-dose screen, 48 h (100 = growth as untreated, 0 = no growth, -100 = all killed)
particulars: 10 µM unless noted
The panel holds about 83,000 compounds, 20% with a hit somewhere; the sample as a whole holds those more often.
Can you tell me growth for the items I'm about to list?
I only need the number, in %, no unit after it.

input: Could you please provide reported growth for CN1CCN(Cc2ccc(NC(=O)c3nc4ccc5[nH]ncc5c4c4c3CCC4)cc2C(F)(F)F)CC1 ? Thanks!
output: 85.9

input: Assign growth to the following record: CC(=O)Nc1ccc(/C=C/C(=O)c2ccccc2)cc1
output: 81.7

input: Dear colleague, please send me the reported growth for COc1ccc(NC(=O)c2cc(OC)c(OC)c(OC)c2)cc1O when you can.
output: -10.2

input: Identify growth associated with the compound O=S(=O)(NCCNc1nccc(-c2c(-c3ccc(F)cc3)nc3sccn23)n1)c1ccc(F)cc1
output: 93.8

input: Let me know recorded growth for COc1ccc(C2C=C(c3ccc(OC)c(OC)c3)N=C3SC=C(C)N32)c(Br)c1 (stereo not given) , thanks.
output: 116

---

Kindly supply the reported growth values for the records listed here.
Test system: NCI-H522 lung
experiment-description: NCI-60 one-dose screen, 48 h (100 = growth as untreated, 0 = no growth, -100 = all killed)
particulars: 10 µM unless noted
About 83,000 compounds went through this panel and 20% of them were active in at least one assay; those are over-represented in the sample as a whole.
// units = %; emit number, no label

input: Report growth for COc1cc2c(=O)n(C3CCCCCC3)c3c4cc[nH]c4ncc3c2cc1OC
output: 65.4

input: Provide growth value for the following molecule: COP(=O)(OC)/C(=N\NS(=O)(=O)c1ccc(C)cc1)c1ccccc1
output: 126

input: Consider the molecule N/C(=N\C(N)=N\c1nc2ccccc2s1)c1cccc(Br)c1 and give its recorded growth.
output: 80

input: Provide one value: measured growth of O=C1NN(C(=O)c2ccc(Cl)cc2)C(c2ccccc2)=N/C1=C\c1ccc(F)cc1
output: 96.5

input: Retrieve growth measured for COc1cc(C2CC(c3ccc4c(c3)OCO4)=NN2C(C)=O)cc(OC)c1OC (stereo not given) and print it.
output: -29.8

---

Test system: M14 melanoma
experiment-description: NCI-60 one-dose screen, 48 h (100 = growth as untreated, 0 = no growth, -100 = all killed)
particulars: 10 µM unless noted
Protocol: Growth inhibition of the M14 human tumor cell line is measured as a screen for anti-cancer activity. Cells are grown in 96 well plates and exposed to the test compound for 48 hours. Compounds are tested at a single concentration, which is 10^-5 M for most compounds. The reported endpoint is percent growth (GI% or GIPRCNT), where numbers from 0 - 100% represent growth inhibition, and numbers from -100% - 0 represent cell death. For example, a value of 40 represents 60% growth inhibition. […]
This is part of a sample that, as a whole, favours compounds with a hit. Of some 83,000 tested, about 20% had one in any assay.
Kindly apply the following: met if growth is less than 20%, not met in every other case.

input: Hello, is growth of the following compound strictly smaller than 20%? CCCCCCCC[C@@H](O)CC(=O)N[C@@H](CC(N)=O)C(=O)N[C@@H](CCC(N)=O)C(=O)N[C@@H](CC(=O)c1cc(C)cc(O)c1C(=O)c1c(O)cccc1O)CC(C)C
output: met

input: Hello, I'm reviewing records and need to know if growth of O=C(N/N=C/C=C\c1ccccc1)C(=O)N/N=C/C=C/c1ccccc1 is below 20%. Could you check?
output: not met

input: Strictly below 20% in growth? CC(=O)c1cc2c(N)c(C(=O)Nc3cccc4c3OCCO4)sc2nc1C
output: not met

input: Here's an entry: CC(C)(C)n1cc(-c2ccnc(NCCCNS(=O)(=O)c3ccc(F)cc3)c2)c(-c2cccc(O)c2)n1 . Is its growth below 20%?
output: not met

input: Bench note: check whether O=C(O)/C=C/C(=O)c1ccc(Cl)cc1 shows growth below 20%
output: not met

input: Quick check: growth of O=C1c2c(c3c4ccccc4n(CCCCCCBr)c3c3[nH]c4ccccc4c23)C(=O)N1O under 20%?
output: met

input: Say whether its growth is strictly beneath 20%. Entry: Cc1ccc(C(=O)NCCCNc2nccc(-n3ccc4cccnc43)n2)cc1
output: not met

input: Please state whether growth is below 20% for COc1ccc(Cn2cc3c(c2-c2cc(OC)c(OC)c(OC)c2)CCc2cnoc2-3)cc1
output: met
